# System: NCI-H226 lung
# PROTOCOL TEXT: NCI-60 one-dose screen, 48 h
# ASSAY SETUP: 10 µM unless noted
About 83,000 compounds went through this panel and 20% of them were active in at least one assay; those are over-represented in the sample as a whole. The source made the active and inactive calls. The calls were made as follows: active = growth percent below 10; inactive = the rest.
Please state which outcome applies, choosing from class 1 (active), class 0 (inactive)

QUERY: Can you look up the reported call for O=C1C=CC(=Nc2cc(Br)c(O)c(Br)c2)C=C1 for me?
RESULT: class 0

----------
# System: MDA-MB-435 melanoma
# PROTOCOL TEXT: NCI-60 one-dose screen, 48 h
# ASSAY SETUP: 10 µM unless noted
Compounds without any hit were thinned out: in the full panel of roughly 83,000, 20% have a hit. Activity calls are given as the source filed them. Rule for the calls: active = growth percent below 10; inactive = the rest.
Outcome (select one): active, inactive

Use these answered entries as a reference point.
[[record]]
molecule = "CC(=O)Nc1nccs1"
study_target = "MDA-MB-435 melanoma"
assigned_category = "inactive"

[[record]]
molecule = "COc1ccc(C2CC(c3ccccc3)=NN2c2nc(C)c(C(C)=O)s2)cc1 (centres undefined)"
study_target = "MDA-MB-435 melanoma"
assigned_category = "inactive"

[[record]]
molecule = "NS(=O)(=O)Oc1ccc(-c2sc3cc(O)ccc3c2C(=O)c2ccc(OCCN3CCCCC3)cc2)cc1"
study_target = "MDA-MB-435 melanoma"
assigned_category = "active"


QUERY: Can you look up the reported call for O=C(Nc1ccccc1)c1sc(-c2cccc(C(F)(F)F)c2)cc1O for me?
RESULT: inactive

Recorded values, source PubChem BioAssay (NCI).
